systemUnderTest: Protein cereblon/Histone acetyltransferase p300 (Homo sapiens) (UniProt Q09472+Q96SW2)
measurementNotes: PROTAC activity at CRBN/HiBiT-tagged p300 in human HAP1 cells assessed as total cumulative degradation by measuring AUC at 0.1 nM measured over 24 hrs by luminescence based analysis; further: unit not given here
Type: cell-based
experimentalEndpoint: AUC

What does the record list as AUC for CNC(=O)N1CCc2c(c(N3CCCc4cc(-c5cnn(CC(=O)NCCOCCOCCOCCOCCNc6ccc7c(c6)C(=O)N(C6CCC(=O)NC6=O)C7=O)c5)c(C(F)F)cc43)nn2C2CCOCC2)C1 (stereo not given) ? 26.8

Try the compound CNC(=O)N1CCc2c(c(N3CCCc4cc(-c5cnn(C)c5)c(C(F)F)cc43)nn2C2CCN(C(=O)CCOCCOCCOCCOCCOCCOCCNc3ccc4c(c3)C(=O)N(C3CCC(=O)NC3=O)C4=O)CC2)C1 (stereo not given) 26.4

Try the compound CNC(=O)N1CCc2c(c(N3CCCc4cc(-c5cnn(C)c5)c(C(F)F)cc43)nn2C2CCN(C(=O)CCOCCNc3ccc4c(c3)C(=O)N(C3CCC(=O)NC3=O)C4=O)CC2)C1 (stereo not given) 24.7

Try the compound CNC(=O)N1CCc2c(c(N3CCCc4cc(-c5cnn(C)c5)c(C(F)F)cc43)nn2C2CCN(C(=O)CCOCCOCCOCCOCCNc3ccc4c(c3)C(=O)N(C3CCC(=O)NC3=O)C4=O)CC2)C1 (stereo not given) 21.7

Try the compound CNC(=O)N1CCc2c(c(N3CCN(C(=O)NCCOCCOCCOCCOCCOCCOCCNc4ccc5c(c4)C(=O)N(C4CCC(=O)NC4=O)C5=O)c4cc(-c5cnn(C)c5)c(C(F)(F)F)cc43)nn2C2CCOCC2)C1 (stereo not given) 27.5

Try the compound CNC(=O)N1CCc2c(c(N3CCN(C(=O)NCCOCCOCCOCCOCCNc4ccc5c(c4)C(=O)N(C4CCC(=O)NC4=O)C5=O)c4cc(-c5cnn(C)c5)c(C(F)(F)F)cc43)nn2C2CCOCC2)C1 (stereo not given) 27.3

Try the compound CNC(=O)N1CCc2c(c(N3CCCc4cc(-c5cnn(CC(=O)NCCOCCOCCOCCOCCOCCOCCNc6ccc7c(c6)C(=O)N(C6CCC(=O)NC6=O)C7=O)c5)c(C(F)F)cc43)nn2C2CCOCC2)C1 (stereo not given) 27

Try the compound CNC(=O)N1CCc2c(c(N3CCN(C(=O)NCCOCCNc4ccc5c(c4)C(=O)N(C4CCC(=O)NC4=O)C5=O)c4cc(-c5cnn(C)c5)c(C(F)(F)F)cc43)nn2C2CCOCC2)C1 (stereo not given) 27.5

Try the compound CNC(=O)N1CCc2c(c(N3CCCc4cc(-c5cnn(C)c5)c(C(F)(F)F)cc43)nn2C2CCN(C(=O)CCOCCOCCOCCOCCNc3ccc4c(c3)C(=O)N(C3CCC(=O)NC3=O)C4=O)CC2)C1 (stereo not given) 23.2

Try the compound CNC(=O)N1CCc2c(c(N3CCCc4cc(-c5cnn(CC(=O)NCCOCCNc6ccc7c(c6)C(=O)N(C6CCC(=O)NC6=O)C7=O)c5)c(C(F)F)cc43)nn2C2CCOCC2)C1 (stereo not given) 27.3

----------
systemUnderTest: Protein cereblon/CREB-binding protein (Homo sapiens) (UniProt Q92793+Q96SW2)
Sequence (Q92793 2-2442 limits assumed): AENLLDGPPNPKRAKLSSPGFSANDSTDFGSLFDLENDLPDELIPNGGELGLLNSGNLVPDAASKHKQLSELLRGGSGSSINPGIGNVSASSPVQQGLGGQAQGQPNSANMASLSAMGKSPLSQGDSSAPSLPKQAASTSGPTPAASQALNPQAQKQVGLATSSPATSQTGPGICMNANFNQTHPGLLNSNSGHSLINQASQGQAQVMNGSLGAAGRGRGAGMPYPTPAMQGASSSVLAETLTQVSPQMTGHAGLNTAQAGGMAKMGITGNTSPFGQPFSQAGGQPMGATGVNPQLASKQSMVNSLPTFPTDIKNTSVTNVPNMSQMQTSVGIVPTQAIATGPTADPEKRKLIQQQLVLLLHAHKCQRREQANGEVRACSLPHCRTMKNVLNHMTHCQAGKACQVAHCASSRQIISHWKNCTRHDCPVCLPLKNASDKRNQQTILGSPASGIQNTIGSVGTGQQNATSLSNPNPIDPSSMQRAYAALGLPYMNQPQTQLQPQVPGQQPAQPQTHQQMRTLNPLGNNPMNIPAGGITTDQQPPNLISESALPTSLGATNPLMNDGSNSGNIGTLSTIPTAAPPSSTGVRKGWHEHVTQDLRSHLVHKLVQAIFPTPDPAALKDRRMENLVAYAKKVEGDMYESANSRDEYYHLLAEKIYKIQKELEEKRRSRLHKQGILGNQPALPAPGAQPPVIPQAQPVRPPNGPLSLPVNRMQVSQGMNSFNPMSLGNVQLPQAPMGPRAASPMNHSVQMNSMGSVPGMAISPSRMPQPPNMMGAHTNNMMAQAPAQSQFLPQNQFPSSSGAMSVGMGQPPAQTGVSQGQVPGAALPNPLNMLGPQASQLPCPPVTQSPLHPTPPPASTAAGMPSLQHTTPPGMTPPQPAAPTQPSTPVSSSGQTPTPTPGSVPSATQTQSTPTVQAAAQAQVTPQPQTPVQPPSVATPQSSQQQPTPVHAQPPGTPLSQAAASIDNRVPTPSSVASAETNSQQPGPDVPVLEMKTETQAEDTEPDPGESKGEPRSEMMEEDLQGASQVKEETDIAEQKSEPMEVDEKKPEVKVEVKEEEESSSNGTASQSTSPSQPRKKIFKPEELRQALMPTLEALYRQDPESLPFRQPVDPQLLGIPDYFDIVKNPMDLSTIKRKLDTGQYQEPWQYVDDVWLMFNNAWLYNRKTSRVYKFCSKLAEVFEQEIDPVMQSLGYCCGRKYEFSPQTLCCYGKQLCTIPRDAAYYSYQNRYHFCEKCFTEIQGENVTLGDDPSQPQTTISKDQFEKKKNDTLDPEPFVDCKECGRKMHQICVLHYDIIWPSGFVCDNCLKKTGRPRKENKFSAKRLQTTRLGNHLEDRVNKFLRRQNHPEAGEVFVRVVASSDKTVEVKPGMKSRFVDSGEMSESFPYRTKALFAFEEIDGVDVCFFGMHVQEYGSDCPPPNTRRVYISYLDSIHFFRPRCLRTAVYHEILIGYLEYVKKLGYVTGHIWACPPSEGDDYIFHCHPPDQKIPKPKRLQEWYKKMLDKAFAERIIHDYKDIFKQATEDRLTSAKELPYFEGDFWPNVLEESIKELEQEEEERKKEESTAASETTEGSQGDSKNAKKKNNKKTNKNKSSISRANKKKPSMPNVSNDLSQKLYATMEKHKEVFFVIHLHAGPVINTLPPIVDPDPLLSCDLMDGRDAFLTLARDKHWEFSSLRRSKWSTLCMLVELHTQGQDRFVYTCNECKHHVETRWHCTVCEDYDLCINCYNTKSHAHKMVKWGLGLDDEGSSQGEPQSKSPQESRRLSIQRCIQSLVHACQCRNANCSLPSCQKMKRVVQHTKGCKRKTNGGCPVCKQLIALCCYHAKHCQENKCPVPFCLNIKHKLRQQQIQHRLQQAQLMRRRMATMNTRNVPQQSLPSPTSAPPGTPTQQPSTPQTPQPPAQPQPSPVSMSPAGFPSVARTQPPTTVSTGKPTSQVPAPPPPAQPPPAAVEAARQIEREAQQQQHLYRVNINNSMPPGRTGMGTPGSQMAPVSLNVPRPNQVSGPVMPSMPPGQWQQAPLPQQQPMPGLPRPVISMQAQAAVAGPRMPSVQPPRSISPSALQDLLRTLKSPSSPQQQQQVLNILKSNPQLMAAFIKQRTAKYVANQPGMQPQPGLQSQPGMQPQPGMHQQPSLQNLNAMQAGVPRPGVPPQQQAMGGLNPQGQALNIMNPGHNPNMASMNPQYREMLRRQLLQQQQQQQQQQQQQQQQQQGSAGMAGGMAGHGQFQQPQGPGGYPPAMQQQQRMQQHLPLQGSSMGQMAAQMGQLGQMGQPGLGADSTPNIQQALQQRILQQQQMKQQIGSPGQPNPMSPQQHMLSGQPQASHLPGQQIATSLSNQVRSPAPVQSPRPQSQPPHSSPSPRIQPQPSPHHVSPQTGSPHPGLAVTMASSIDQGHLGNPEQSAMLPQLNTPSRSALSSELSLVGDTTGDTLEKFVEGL
Sequence (Q96SW2 whole entry partner): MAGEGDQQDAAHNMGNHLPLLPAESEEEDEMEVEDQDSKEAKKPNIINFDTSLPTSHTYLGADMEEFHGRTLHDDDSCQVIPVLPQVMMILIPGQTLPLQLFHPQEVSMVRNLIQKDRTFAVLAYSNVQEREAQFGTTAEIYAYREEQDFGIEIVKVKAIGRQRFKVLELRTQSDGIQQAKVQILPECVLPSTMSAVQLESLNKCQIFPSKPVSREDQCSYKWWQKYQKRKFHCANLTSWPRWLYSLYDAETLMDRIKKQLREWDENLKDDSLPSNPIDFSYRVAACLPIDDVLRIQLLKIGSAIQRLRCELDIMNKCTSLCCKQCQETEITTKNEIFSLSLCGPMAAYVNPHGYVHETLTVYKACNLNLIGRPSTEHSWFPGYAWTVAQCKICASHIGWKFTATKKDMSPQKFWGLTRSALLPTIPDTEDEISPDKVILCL
measurementNotes: PROTAC activity at CRBN/HiBiT-tagged CBP in human HAP1 cells assessed as induction of CBP degradation by measuring degradation rate at 1000 nM measured over 24 hrs by luminescence based analysis
Type: cell-based
experimentalEndpoint: Activity (h⁻¹)

[P] CNC(=O)N1CCc2c(c(N3CCCc4cc(-c5cnn(CC(=O)NCCOCCOCCOCCOCCNc6ccc7c(c6)C(=O)N(C6CCC(=O)NC6=O)C7=O)c5)c(C(F)F)cc43)nn2C2CCOCC2)C1 (centres undefined)
[Q] CNC(=O)N1CCc2c(c(N3CCCc4cc(-c5cnn(C)c5)c(C(F)F)cc43)nn2C2CCN(C(=O)CCOCCOCCOCCOCCOCCOCCNc3ccc4c(c3)C(=O)N(C3CCC(=O)NC3=O)C4=O)CC2)C1 (centres undefined)
[R] CNC(=O)N1CCc2c(c(N3CCN(C(=O)NCCOCCNc4ccc5c(c4)C(=O)N(C4CCC(=O)NC4=O)C5=O)c4cc(-c5cnn(C)c5)c(C(F)(F)F)cc43)nn2C2CCOCC2)C1 (centres undefined)
Please list these compounds in decreasing order of Activity. Thanks in advance for listing the labels in the requested order. Q, P, R
(Q: 0.42 h⁻¹, P: 0.12 h⁻¹, R: 0.036 h⁻¹)
